Tested on: U87 tumor
Assay: PET imaging and tissue biodistribution in U87 tumor-bearing mice
Type: in vivo, mouse
Conditions: untitled table; radiolabel and time not given; in %ID/g
reported property: Biodistribution: Kidney
Could you keep your reply to the number by itself?

Reported Biodistribution: Kidney, compound N#C[C@@H]1CCCN1C(=O)CNC(=O)c1ccnc2ccc(OCCCNC(=O)C(CCNC(=O)c3ccc(F)nc3)NC(=O)CN3CCN(CC(=O)O)CCN(CC(=O)O)CCN(CC(=O)O)CC3)cc12 (some centres unmarked) : ____
2.65

Reported Biodistribution: Kidney, compound N#CC1CCCN1C(=O)CNC(=O)c1ccnc2ccc(OCCCNC(=O)CCc3cn(CC[C@H](NC(=O)c4ccc(F)nc4)C(=O)NCCNC(=O)CN4CCN(CC(=O)O)CCN(CC(=O)O)CCN(CC(=O)O)CC4)nn3)cc12 (some centres unmarked) : ____
5.16

Reported Biodistribution: Kidney, compound N#C[C@@H]1CCCN1C(=O)CNC(=O)c1ccnc2ccc(OCCCNC(=O)CCOCCOCCOCCNC(=O)C(CCNC(=O)c3ccc(F)nc3)NC(=O)CN3CCN(CC(=O)O)CCN(CC(=O)O)CCN(CC(=O)O)CC3)cc12 (some centres unmarked) : ____
3.98

Reported Biodistribution: Kidney, compound N#C[C@@H]1CCCN1C(=O)CNC(=O)c1ccnc2ccc(OCCCN3CC4CN(C(=O)C(CCNC(=O)c5ccc(F)nc5)NC(=O)CN5CCN(CC(=O)O)CCN(CC(=O)O)CCN(CC(=O)O)CC5)CC4C3)cc12 (some centres unmarked) : ____
2.82

Reported Biodistribution: Kidney, compound N#CC1CCCN1C(=O)CNC(=O)c1ccnc2ccc(OCCCNC(=O)CCc3cn(CCCC[C@H](NC(=O)c4ccc(F)nc4)C(=O)NCCNC(=O)CN4CCN(CC(=O)O)CCN(CC(=O)O)CCN(CC(=O)O)CC4)nn3)cc12 (some centres unmarked) : ____
5.47

====

Tested on: U87 tumor
Experiment: PET imaging and tissue biodistribution in U87 tumor-bearing mice
Type: in vivo, mouse
Details: untitled table; radiolabel and time not given; in %ID/g
Provide the recorded Biodistribution: Liver for the entries that follow.
Could you keep your reply to the number by itself?

// lookup Biodistribution: Liver | system=U87 tumor | key= N#C[C@@H]1CCCN1C(=O)CNC(=O)c1ccnc2ccc(OCCCNC(=O)C(CCNC(=O)c3ccc(F)nc3)NC(=O)CN3CCN(CC(=O)O)CCN(CC(=O)O)CCN(CC(=O)O)CC3)cc12 (some centres unmarked)
2.73

// lookup Biodistribution: Liver | system=U87 tumor | key= N#C[C@@H]1CCCN1C(=O)CNC(=O)c1ccnc2ccc(OCCCNC(=O)CCOCCOCCOCCNC(=O)C(CCNC(=O)c3ccc(F)nc3)NC(=O)CN3CCN(CC(=O)O)CCN(CC(=O)O)CCN(CC(=O)O)CC3)cc12 (some centres unmarked)
5.15

// lookup Biodistribution: Liver | system=U87 tumor | key= N#CC1CCCN1C(=O)CNC(=O)c1ccnc2ccc(OCCCNC(=O)CCc3cn(CCCC[C@H](NC(=O)c4ccc(F)nc4)C(=O)NCCNC(=O)CN4CCN(CC(=O)O)CCN(CC(=O)O)CCN(CC(=O)O)CC4)nn3)cc12 (some centres unmarked)
6.13

// lookup Biodistribution: Liver | system=U87 tumor | key= N#C[C@@H]1CCCN1C(=O)CNC(=O)c1ccnc2ccc(OCCCN3CC4CN(C(=O)C(CCNC(=O)c5ccc(F)nc5)NC(=O)CN5CCN(CC(=O)O)CCN(CC(=O)O)CCN(CC(=O)O)CC5)CC4C3)cc12 (some centres unmarked)
2.02

// lookup Biodistribution: Liver | system=U87 tumor | key= N#CC1CCCN1C(=O)CNC(=O)c1ccnc2ccc(OCCCNC(=O)CCc3cn(CC[C@H](NC(=O)c4ccc(F)nc4)C(=O)NCCNC(=O)CN4CCN(CC(=O)O)CCN(CC(=O)O)CCN(CC(=O)O)CC4)nn3)cc12 (some centres unmarked)
6.87

====

Provide the recorded IC50 for the entries that follow.
Biological target: DPPIV (Homo sapiens (Human), UniProt P27487)
Sequence (P27487 whole entry): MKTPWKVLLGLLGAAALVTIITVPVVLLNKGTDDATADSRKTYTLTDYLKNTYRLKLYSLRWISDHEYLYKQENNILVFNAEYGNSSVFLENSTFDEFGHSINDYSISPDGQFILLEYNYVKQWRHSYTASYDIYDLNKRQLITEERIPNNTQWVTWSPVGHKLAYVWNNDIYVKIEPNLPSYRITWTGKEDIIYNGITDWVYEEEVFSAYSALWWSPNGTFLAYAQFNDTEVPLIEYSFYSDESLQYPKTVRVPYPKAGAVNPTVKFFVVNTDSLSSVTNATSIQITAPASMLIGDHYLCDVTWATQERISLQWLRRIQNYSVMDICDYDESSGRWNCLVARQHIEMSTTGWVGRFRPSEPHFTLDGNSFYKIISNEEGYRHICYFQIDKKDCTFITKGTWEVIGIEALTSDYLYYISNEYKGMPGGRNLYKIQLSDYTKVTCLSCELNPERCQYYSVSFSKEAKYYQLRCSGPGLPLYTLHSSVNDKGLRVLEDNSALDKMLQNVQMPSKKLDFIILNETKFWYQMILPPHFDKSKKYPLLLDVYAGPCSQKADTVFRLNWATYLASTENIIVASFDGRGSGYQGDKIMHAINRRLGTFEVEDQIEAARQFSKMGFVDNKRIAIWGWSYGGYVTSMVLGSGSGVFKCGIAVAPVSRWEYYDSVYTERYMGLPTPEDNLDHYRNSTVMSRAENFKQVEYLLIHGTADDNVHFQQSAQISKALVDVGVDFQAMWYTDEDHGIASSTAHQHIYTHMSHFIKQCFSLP
Experiment: DPPIV inhibition assay (recombinant enzyme, H-Gly-Pro-AMC substrate)
Format: biochemical
Conditions: Table 4; read-out: DPPIV IC50
Experimental: PSMA binding affinities of the compounds were determined using a competitive inhibition assay as previously reported. […] FAP, prolyl endopeptidase (PREP), and […] (DPPIV) inhibition assays: Recombinant enzymes (FAP, PREP, DPPIV) were purchased from R&D Systems (Minneapolis, MN). […] Fluorescence intensity was measured with 380 nm excitation and 460 nm emission using the Cytation 5 Cell Imaging Multi-Mode Reader (BioTek, Winooski, VT). […]
Provide the reading as a plain figure in µM.

// lookup IC50 | system=DPPIV (Homo sapiens (Human), UniProt P27487) | key= N#C[C@@H]1CCCN1C(=O)CNC(=O)c1ccnc2ccc(OCCCNC(=O)CCc3cn(CCOCCOCCOCCC(=O)N[C@@H](CCCCNC(=O)CN4CCN(CC(=O)O)CCN(CC(=O)O)CCN(CC(=O)O)CC4)C(=O)NCCCCC(=O)N(CCCC[C@H](NC(=O)N[C@@H](CCC(=O)O)C(=O)O)C(=O)O)Cc4ccc(Br)cc4)nn3)cc12 [SB-FAP-01]
16.9

// lookup IC50 | system=DPPIV (Homo sapiens (Human), UniProt P27487) | key= N#CC1CCCN1C(=O)CNC(=O)c1ccnc2ccc(OCCCNC(=O)CCc3cn(CC[C@H](NC(=O)CN4CCN(CC(=O)O)CCN(CC(=O)O)CC4)C(=O)NCCCCCC(=O)NCCCC[C@H](NC(=O)N[C@@H](CC(=O)O)C(=O)O)C(=O)O)nn3)cc12 (stereo partly shown) [SRI-07-42]
9.91

// lookup IC50 | system=DPPIV (Homo sapiens (Human), UniProt P27487) | key= N#C[C@@H]1CCCN1C(=O)CNC(=O)c1ccnc2ccc(OCCCNC(=O)CCc3cn(CCCC[C@H](NC(=O)CN4CCN(CC(=O)O)CCN(CC(=O)O)CC4)C(=O)NCCCCCC(=O)N(CCCC[C@H](NC(=O)N[C@@H](CCC(=O)O)C(=O)O)C(=O)O)Cc4ccc(Br)cc4)nn3)cc12 [SB-FAP-07]
11.7

// lookup IC50 | system=DPPIV (Homo sapiens (Human), UniProt P27487) | key= CC1(C)C(/C=C/C2=C(Oc3ccc(S(=O)(=O)O)cc3)C(=C/C=C3/N(CCCCS(=O)(=O)O)c4ccc(S(=O)(=O)O)cc4C3(C)C)/CCC2)=[N+](CCCCCC(=O)N[C@@H](CCCCn2cc(CCC(=O)NCCCOc3ccc4nccc(C(=O)NCC(=O)N5CCC[C@H]5C#N)c4c3)nn2)C(=O)NCCNC(=O)CCC(C(=O)O)N2CCN(CC(=O)O)CCN(CC(=O)O)CCN(CC(=O)O)CC2)c2ccc(S(=O)(=O)[O-])cc21 (stereo partly shown) [SB-FAP-10]
11.9

// lookup IC50 | system=DPPIV (Homo sapiens (Human), UniProt P27487) | key= N#C[C@@H]1CCCN1C(=O)CNC(=O)c1ccnc2ccc(OCCCNC(=O)CCc3cn(CCOCCOCCOCCC(=O)N[C@@H](CCCCNC(=O)CN4CCN(CC(=O)O)CCN(CC(=O)O)CC4)C(=O)NCCCCC(=O)N(CCCC[C@H](NC(=O)N[C@@H](CCC(=O)O)C(=O)O)C(=O)O)Cc4ccc(Br)cc4)nn3)cc12 [SB-FAP-02]
8.81

// lookup IC50 | system=DPPIV (Homo sapiens (Human), UniProt P27487) | key= N#C[C@@H]1CCCN1C(=O)CNC(=O)c1ccnc2ccc(OCCCNC(=O)CCc3cn(CCOCCOCCOCCC(=O)N[C@@H](CCCCNC(=O)CCC(C(=O)O)N4CCN(CC(=O)O)CCN(CC(=O)O)CCN(CC(=O)O)CC4)C(=O)NCCCCC(=O)N(CCCC[C@H](NC(=O)N[C@@H](CCC(=O)O)C(=O)O)C(=O)O)Cc4ccc(Br)cc4)nn3)cc12 (stereo partly shown) [SB-FAP-03]
18.4

// lookup IC50 | system=DPPIV (Homo sapiens (Human), UniProt P27487) | key= N#C[C@@H]1CCCN1C(=O)CNC(=O)c1ccnc2ccc(OCCCNC(=O)CCc3cn(CCCC[C@H](NC(=O)CN4CCN(CC(=O)O)CCN(CC(=O)O)CCN(CC(=O)O)CC4)C(=O)NCCCCCC(=O)N(CCCC[C@H](NC(=O)N[C@@H](CCC(=O)O)C(=O)O)C(=O)O)Cc4ccc(Br)cc4)nn3)cc12 [SB-FAP-06]
14.1

====

System: U87 tumor
Assay: PET imaging and tissue biodistribution in U87 tumor-bearing mice
Assay type: in vivo, mouse
Details: untitled table; radiolabel and time not given; in %ID/g
reported property: Biodistribution: U87

Reported Biodistribution: U87, molecule N#CC1CCCN1C(=O)CNC(=O)c1ccnc2ccc(OCCCNC(=O)CCc3cn(CC[C@H](NC(=O)c4ccc(F)nc4)C(=O)NCCNC(=O)CN4CCN(CC(=O)O)CCN(CC(=O)O)CCN(CC(=O)O)CC4)nn3)cc12 (some centres unmarked) : ____
5.67 ± 2.42

Reported Biodistribution: U87, molecule N#C[C@@H]1CCCN1C(=O)CNC(=O)c1ccnc2ccc(OCCCN3CC4CN(C(=O)C(CCNC(=O)c5ccc(F)nc5)NC(=O)CN5CCN(CC(=O)O)CCN(CC(=O)O)CCN(CC(=O)O)CC5)CC4C3)cc12 (some centres unmarked) : ____
20.43 ± 1.73

Reported Biodistribution: U87, molecule N#C[C@@H]1CCCN1C(=O)CNC(=O)c1ccnc2ccc(OCCCNC(=O)C(CCNC(=O)c3ccc(F)nc3)NC(=O)CN3CCN(CC(=O)O)CCN(CC(=O)O)CCN(CC(=O)O)CC3)cc12 (some centres unmarked) : ____
20.41 ± 3.28

Reported Biodistribution: U87, molecule N#CC1CCCN1C(=O)CNC(=O)c1ccnc2ccc(OCCCNC(=O)CCc3cn(CCCC[C@H](NC(=O)c4ccc(F)nc4)C(=O)NCCNC(=O)CN4CCN(CC(=O)O)CCN(CC(=O)O)CCN(CC(=O)O)CC4)nn3)cc12 (some centres unmarked) : ____
7.84 ± 1.95

Reported Biodistribution: U87, molecule N#C[C@@H]1CCCN1C(=O)CNC(=O)c1ccnc2ccc(OCCCNC(=O)CCOCCOCCOCCNC(=O)C(CCNC(=O)c3ccc(F)nc3)NC(=O)CN3CCN(CC(=O)O)CCN(CC(=O)O)CCN(CC(=O)O)CC3)cc12 (some centres unmarked) : ____
6.56 ± 1.76
